The reported numbers originate from patent US20230322924A1.

Target: T1, Cyno CD33 full length, expressed on HEK293F cells (cynomolgus monkey)
T1 construct: HEK293F cells transduced with lentivirus containing full length cyno CD33 (Genbank XP_005590138.1); also called cyCD33
Assay: flow cytometry, HEK293F cells expressing cyno CD33
Protocol: OMNIRat antibodies identified via immunization, v-region cloned and subsequently expressed and purified were characterized further for binding to CD33 expressing cells and binding to recombinant antigens. The purified antibodies were assessed for binding to stably transfected HEK293F cells expressing human CD33 or cyno CD33 (generation described above) along with the parental HEK293F as negative control. […] Antibody binding was assessed by the mean fluorescence intensity in the AF647 channel.
REPORTED ENDPOINT: MFI at 0.6 nM mAb (MFI)
# unit: MFI | format: bare number

[
  {
    "BINDER": "C33B52 (antibody, IgG1, V domains shown, huIgG1 F405L; also called C33F57; C33H42/C33L8) VH: QLQLQESGPGLVNPSETLSHTCTVSGGSISSSSHYWGWIRQPPGKGLEWIGKIYYSGNTYYNPSLKSRVTISIDTSKNQFSLKMSSVTAADTAVYYCARLADVVVVPAARYFDSWGQGTLVTVSS VL: SYELTQPPSVSVSPGQTASIICSGDKLGNKYACWYQQKPGQSPVLVIYQDSKRPSGIPERFSGSNSGNTATLTISGTQAVDEADYYCQAWDSSTYVFGTGTKVTVL",
    "REPORTED ENDPOINT": "MFI at 0.6 nM mAb",
    "NUMERIC VALUE": 2060
  },
  {
    "BINDER": "C33B66 (antibody, IgG1, V domains shown, huIgG1 F405L; also called C33F71; C33H55/C33L42) VH: QVQLQESGPGLVKPSGTLSLTCAVSGGSISSSNWWSWVRQPPGRGLEWIGEIYHSGNTNNSPSLKSRVTISADKSKNQFSLKLSSVTAADTAVYFCARIIAVARYFDSWGQGTLVTVSS VL: SYVLTQPPSVSVAPGQTARITCGGNNIGIKSVHWYQQKPGQAPVLVVYDDSDRPPGIPERFSGSNSGNTATLTITRVEAGDEADYYCQVWDSSSDHVVFGGGTKLTVL",
    "REPORTED ENDPOINT": "MFI at 0.6 nM mAb",
    "NUMERIC VALUE": 42200
  }
]

[Q] What value of MFI at 0.6 nM mAb has been reported for the following binder? C33B55 (antibody, IgG1, V domains shown, huIgG1 F405L; also called C33F60; C33H45/C33L11) VH: QVQLVESGGGVVQPGRSLRLSCAASGFTFSSYGMHWVRQSPGKGLEWVAVISYDGSNKYCADSVKGRFTISRDNSKSTLYLQMNSLRAEDTAVYYCAKDFRSLDWLPPDSTSYDGMDVWGQGTTVTVSS VL: SYELTQPPSVSVSPGQTASITCSGHKLGDKYACWYQQKPGQSPVVVIYKDSKRPSGIPERFSGSNFGNTATLTISGTQAMDEADYYCQAWDSSTVVFGGGTKLTVL
[A] 2430
